Would you mind telling me the reported residual activity of each entry?
Target: DCLK2 (human) (UniProt Q8N568)
Sequence (Q8N568 whole entry, looked up): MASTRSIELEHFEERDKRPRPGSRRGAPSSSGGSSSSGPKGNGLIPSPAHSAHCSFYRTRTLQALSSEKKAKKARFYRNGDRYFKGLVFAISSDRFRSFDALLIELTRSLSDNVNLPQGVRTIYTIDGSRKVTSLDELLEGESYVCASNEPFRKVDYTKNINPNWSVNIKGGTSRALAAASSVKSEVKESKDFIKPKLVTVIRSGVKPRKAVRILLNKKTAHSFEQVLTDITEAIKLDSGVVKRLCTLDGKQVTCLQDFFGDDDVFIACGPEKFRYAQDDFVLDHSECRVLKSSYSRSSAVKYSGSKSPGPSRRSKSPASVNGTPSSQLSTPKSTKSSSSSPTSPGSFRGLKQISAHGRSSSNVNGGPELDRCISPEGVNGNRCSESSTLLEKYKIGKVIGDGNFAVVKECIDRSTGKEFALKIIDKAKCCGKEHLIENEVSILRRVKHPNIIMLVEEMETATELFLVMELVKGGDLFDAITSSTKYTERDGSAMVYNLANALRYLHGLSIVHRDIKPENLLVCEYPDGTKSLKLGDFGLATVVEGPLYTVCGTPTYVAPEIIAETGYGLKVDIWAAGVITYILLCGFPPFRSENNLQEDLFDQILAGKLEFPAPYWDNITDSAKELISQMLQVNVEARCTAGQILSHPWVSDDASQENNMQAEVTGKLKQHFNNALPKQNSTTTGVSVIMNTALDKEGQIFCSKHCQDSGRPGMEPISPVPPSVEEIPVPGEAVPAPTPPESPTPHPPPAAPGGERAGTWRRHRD
Test: radiometric filter-binding kinase assay, Kinase HotSpot
Conditions: compound 0.5 µM; ATP 10 µM
API: value field is a number in %; no unit string.

Q: Look up residual activity for this molecule: `COc1cc2ncnc(Nc3ccc(O)c(Br)c3)c2cc1OC`
Ans: 101

Q: # residual activity lookup, item `CCc1nc(-c2ccc(OC)cc2)[nH]c1-c1ccncc1`
Ans: 103

Q: Quick one: residual activity of `CCCCc1c(-c2ccc(O)cc2)[nH]c2nccnc12` ?
Ans: 99.7

Q: Give its residual activity value. Item: `O=c1cc(N2CCOCC2)oc2c(-c3ccccc3)cccc12`
Ans: 97.6

Q: Endpoint output: residual activity of `O=C(c1ccccc1)c1ccc(N2CCOCC2)cc1O` . Value?
Ans: 103

Q: Given the molecule `N/C(=N\N=C/c1ccc(-c2cccc([N+](=O)[O-])c2)o1)N[N+](=O)[O-]` , what is its reported residual activity?
Ans: 101

Q: Query (molecule): `COc1cccc(-c2cc(=O)c3ccccc3o2)c1N` ; field requested: residual activity
Ans: 88.3

Q: Tell me the measured residual activity of `c1ccc(-c2cnc(Nc3ccc(OCCN4CCCC4)cc3)s2)cc1` , please.
Ans: 87.6

Q: So what's the measured residual activity for this one? `COc1cc2c(N3CCN(C(=O)Nc4ccc(OC(C)C)cc4)CC3)ncnc2cc1OCCCN1CCCCC1`
Ans: 103

Q: Using the record for `Cn1cc(/C=C2\C(=O)Nc3ccc(S(N)(=O)=O)cc32)c2ccccc21` , report its residual activity.
Ans: 93.2

Q: Item `O=C(O)c1ccc2c3c1cccc3c(=O)n1c3ccccc3nc21` has what recorded residual activity?
Ans: 96.7

Q: Field request: residual activity | item: `COc1cc2c(Nc3ccc(Br)cc3F)ncnc2cc1OCC1CCN(C)CC1`
Ans: 104

Q: # input molecule: `O=S(=O)(NCCNC/C=C/c1ccc(Br)cc1)c1cccc2cnccc12` ; wanted: its residual activity
Ans: 90.1

Q: What value of measured residual activity is listed for `Cc1cc(Nc2nc(-c3ccccc3)nc3ccccc23)n[nH]1` ?
Ans: 87.4

Q: Return reported residual activity; argument: `COc1cc2c(cc1OC)-c1[nH]nc(Nc3cccc(F)c3)c1C2`
Ans: 88.2

Q: Reported residual activity, molecule `N#CCCc1ccc2c(c1)-c1[nH]c3ccc([N+](=O)[O-])cc3c1CC(=O)N2` : ____
Ans: 104

Q: Value lookup for residual activity; key = `N#Cc1c(NC(=O)c2cccc3ccccc23)sc2c1CCCC2`
Ans: 96.5

Q: Param item = `O=C1NC(=O)c2cc(Nc3ccc(F)cc3)c(Nc3ccc(F)cc3)cc21` ; retrieve measured residual activity.
Ans: 100

Q: Would you kindly share the measured residual activity for `N#C/C(=C1/Nc2ccccc2S1)c1ccnc(NCCc2cccnc2)n1` ?
Ans: 96

Q: Look up residual activity: `FC(F)(F)c1ccc(/C=C/c2nc(COc3ccc(CCCCn4ccnn4)cc3)co2)cc1`
Ans: 102

Q: Dear colleague, I am looking for the recorded residual activity of the following molecule: `O=C1NC(=O)c2c1c1c3ccccc3[nH]c1c1[nH]c3cc(Br)ccc3c21`
Ans: 87.2

Hey, just so you know, these numbers are from the kinase profiling compilation of Christmann-Franck et al. (2016).
